test: Metabolic stability in dog liver microsomes assessed as half life at 2 uM measured up to 60 mins by LC-MS/MS analysis; assay type: ADME, Canis lupus familiaris, Microsome

MOLECULE | half-life at 2 µM, min
COc1ncc(-c2cc(OCCCCCCCCCCCCNc3cccc4c3C(=O)N(C3CCC(=O)NC3=O)C4=O)c3ncnc(C)c3c2)cc1NS(=O)(=O)c1ccc(F)cc1F (stereo unspecified) | 67.5

----------
molecular target: Voltage-gated inwardly rectifying potassium channel KCNH2 (Homo sapiens, UniProt Q12809); assay: Inhibition of hERG stably expressed in HEK293 cells by whole-cell patch-clamp technique
Sequence (Q12809 whole entry): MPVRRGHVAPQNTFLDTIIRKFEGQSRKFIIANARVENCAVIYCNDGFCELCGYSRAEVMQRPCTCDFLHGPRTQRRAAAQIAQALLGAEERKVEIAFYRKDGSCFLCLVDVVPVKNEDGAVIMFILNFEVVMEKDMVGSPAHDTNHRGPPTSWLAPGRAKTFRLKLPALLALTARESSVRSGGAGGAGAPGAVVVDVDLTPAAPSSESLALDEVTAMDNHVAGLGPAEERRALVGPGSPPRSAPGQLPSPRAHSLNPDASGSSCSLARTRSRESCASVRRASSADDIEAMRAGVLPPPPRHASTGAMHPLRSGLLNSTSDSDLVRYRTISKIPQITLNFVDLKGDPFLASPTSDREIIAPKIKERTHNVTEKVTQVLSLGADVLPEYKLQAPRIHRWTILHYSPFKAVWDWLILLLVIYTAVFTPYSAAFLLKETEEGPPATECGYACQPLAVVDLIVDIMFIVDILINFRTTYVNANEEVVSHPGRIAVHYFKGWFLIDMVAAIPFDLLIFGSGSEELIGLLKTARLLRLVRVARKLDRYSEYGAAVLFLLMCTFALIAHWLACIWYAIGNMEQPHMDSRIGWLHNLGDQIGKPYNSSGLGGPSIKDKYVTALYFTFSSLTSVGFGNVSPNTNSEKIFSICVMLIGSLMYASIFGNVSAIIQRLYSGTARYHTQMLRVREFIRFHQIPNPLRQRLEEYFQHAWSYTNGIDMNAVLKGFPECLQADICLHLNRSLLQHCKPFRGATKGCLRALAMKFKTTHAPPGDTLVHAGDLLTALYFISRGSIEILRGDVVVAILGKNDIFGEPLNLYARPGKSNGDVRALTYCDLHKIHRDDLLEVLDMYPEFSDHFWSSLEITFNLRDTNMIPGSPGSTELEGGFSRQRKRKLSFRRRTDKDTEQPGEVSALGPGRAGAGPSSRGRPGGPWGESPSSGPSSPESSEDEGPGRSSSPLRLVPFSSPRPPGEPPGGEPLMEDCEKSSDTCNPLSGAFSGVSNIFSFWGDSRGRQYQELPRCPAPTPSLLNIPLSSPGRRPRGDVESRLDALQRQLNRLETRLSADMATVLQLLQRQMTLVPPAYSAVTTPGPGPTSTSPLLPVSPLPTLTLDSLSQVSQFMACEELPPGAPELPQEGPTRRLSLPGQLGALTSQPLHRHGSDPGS

COMPOUND | IC50
COc1ncc(-c2cc(OCCCCCCCCCCCCNc3cccc4c3C(=O)N(C3CCC(=O)NC3=O)C4=O)c3ncnc(C)c3c2)cc1NS(=O)(=O)c1ccc(F)cc1F (stereo unspecified) | > 10 µM

----------
assay: AUC (0 to t) in Sprague-Dawley rat at 15 mg/kg, ip measured for 24 hrs by LC-MS/MS analysis; format: ADME, organism-based; conditions: in vivo
MEASURED ATTRIBUTE: AUC(0-t) at 24 h

MOLECULE | READOUT VALUE
COc1ncc(-c2cc(OCCCCCCCCCCCCNc3cccc4c3C(=O)N(C3CCC(=O)NC3=O)C4=O)c3ncnc(C)c3c2)cc1NS(=O)(=O)c1ccc(F)cc1F (stereo unspecified) | 5490 ng·h/mL

----------
assay: Toxicity in C57BL/6J mouse administered intraperitoneally for 7 days; settings: in vivo, route ip, time 7 day

COMPOUND | MTD at 168 h
COc1ncc(-c2cc(OCCCCCCCCCCCCNc3cccc4c3C(=O)N(C3CCC(=O)NC3=O)C4=O)c3ncnc(C)c3c2)cc1NS(=O)(=O)c1ccc(F)cc1F (stereo unspecified) | > 100 mg/kg

----------
experiment: Oral bioavailability in Sprague-Dawley rat at 15 mg/kg measured for 24 hrs by LC-MS/MS analysis; type: ADME, organism-based; conditions: in vivo

MOLECULE | bioavailability, %
COc1ncc(-c2cc(OCCCCCCCCCCCCNc3cccc4c3C(=O)N(C3CCC(=O)NC3=O)C4=O)c3ncnc(C)c3c2)cc1NS(=O)(=O)c1ccc(F)cc1F (stereo unspecified) | 46.4

----------
experiment: Terminal half life in Sprague-Dawley rat at 15 mg/kg, ip measured for 24 hrs by LC-MS/MS analysis; type: ADME, organism-based; settings: in vivo, read-out: beta t1/2 (converted)
MEASURED ATTRIBUTE: half-life

COMPOUND | MEASURED ATTRIBUTE | READOUT VALUE
COc1ncc(-c2cc(OCCCCCCCCCCCCNc3cccc4c3C(=O)N(C3CCC(=O)NC3=O)C4=O)c3ncnc(C)c3c2)cc1NS(=O)(=O)c1ccc(F)cc1F (stereo unspecified) | half-life | 4.28 h

----------
assay: Terminal half life in Sprague-Dawley rat at 1.5 mg/kg, iv measured for 24 hrs by LC-MS/MS analysis; assay type: ADME, organism-based; conditions: in vivo, read-out: beta t1/2 (converted)

COMPOUND | half-life, h
COc1ncc(-c2cc(OCCCCCCCCCCCCNc3cccc4c3C(=O)N(C3CCC(=O)NC3=O)C4=O)c3ncnc(C)c3c2)cc1NS(=O)(=O)c1ccc(F)cc1F (stereo unspecified) | 2.11

----------
test system: HGC-27; test: Antiproliferative activity against human HGC-27 cells assessed as inhibition of cell viability incubated for 3 days by MTT/CTG assay; details: HGC-27, 72 h

COMPOUND | SYSTEM NAME | IC50 (µM)
COc1ncc(-c2cc(OCCCCCCCCCCCCNc3cccc4c3C(=O)N(C3CCC(=O)NC3=O)C4=O)c3ncnc(C)c3c2)cc1NS(=O)(=O)c1ccc(F)cc1F (configuration not stated) | HGC-27 | 1.45
Cc1nc(NC(=O)N2CCC[C@H]2C(N)=O)sc1-c1ccnc(C(C)(C)C(F)(F)F)c1 | HGC-27 | 1.92

----------
assay: AUC (0 to t) in ICR mouse at 3 mg/kg, iv measured for 24 hrs by LC-MS/MS analysis; type: ADME, organism-based; conditions: in vivo

COMPOUND | AUC(0-t) at 24 h [ng·h/mL]
COc1ncc(-c2cc(OCCCCCCCCCCCCNc3cccc4c3C(=O)N(C3CCC(=O)NC3=O)C4=O)c3ncnc(C)c3c2)cc1NS(=O)(=O)c1ccc(F)cc1F (stereo unspecified) | 12700

----------
assay: MRT (0 to t) in ICR mouse at 3 mg/kg, iv measured for 24 hrs by LC-MS/MS analysis; type: ADME, organism-based; conditions: in vivo

MOLECULE | MRT last at 24 h (h)
COc1ncc(-c2cc(OCCCCCCCCCCCCNc3cccc4c3C(=O)N(C3CCC(=O)NC3=O)C4=O)c3ncnc(C)c3c2)cc1NS(=O)(=O)c1ccc(F)cc1F (stereo unspecified) | 6.69

----------
experiment: MRT (0 to t) in Sprague-Dawley rat at 15 mg/kg, ip measured for 24 hrs by LC-MS/MS analysis; assay type: ADME, organism-based; conditions: in vivo
MEASURED ATTRIBUTE: MRT last at 24 h (h)

COMPOUND | MEASURED ATTRIBUTE | READOUT VALUE
COc1ncc(-c2cc(OCCCCCCCCCCCCNc3cccc4c3C(=O)N(C3CCC(=O)NC3=O)C4=O)c3ncnc(C)c3c2)cc1NS(=O)(=O)c1ccc(F)cc1F (stereo unspecified) | MRT last at 24 h | 6.05

----------
experiment: Metabolic stability in rat liver microsomes assessed as half life at 2 uM measured up to 60 mins by LC-MS/MS analysis; format: ADME, Microsome

MOLECULE | half-life at 2 µM / min
COc1ncc(-c2cc(OCCCCCCCCCCCCNc3cccc4c3C(=O)N(C3CCC(=O)NC3=O)C4=O)c3ncnc(C)c3c2)cc1NS(=O)(=O)c1ccc(F)cc1F (stereo unspecified) | 45.7

----------
experiment: AUC (0 to t) in ICR mouse at 30 mg/kg, ip measured for 24 hrs by LC-MS/MS analysis; format: ADME, organism-based; settings: in vivo

MOLECULE | AUC(0-t) at 24 h (ng·h/mL)
COc1ncc(-c2cc(OCCCCCCCCCCCCNc3cccc4c3C(=O)N(C3CCC(=O)NC3=O)C4=O)c3ncnc(C)c3c2)cc1NS(=O)(=O)c1ccc(F)cc1F (stereo unspecified) | 26300

----------
assay: Oral bioavailability in ICR mouse at 30 mg/kg measured for 24 hrs by LC-MS/MS analysis; type: ADME, organism-based; settings: in vivo

MOLECULE | QUANTITY UNIT | bioavailability
COc1ncc(-c2cc(OCCCCCCCCCCCCNc3cccc4c3C(=O)N(C3CCC(=O)NC3=O)C4=O)c3ncnc(C)c3c2)cc1NS(=O)(=O)c1ccc(F)cc1F (stereo unspecified) | % | 20

----------
assay: Terminal half life in ICR mouse at 30 mg/kg, ip measured for 24 hrs by LC-MS/MS analysis; format: ADME, organism-based; details: in vivo, read-out: beta t1/2

MOLECULE | half-life
COc1ncc(-c2cc(OCCCCCCCCCCCCNc3cccc4c3C(=O)N(C3CCC(=O)NC3=O)C4=O)c3ncnc(C)c3c2)cc1NS(=O)(=O)c1ccc(F)cc1F (stereo unspecified) | > 24 h

----------
test system: AGS; test: Antiproliferative activity against human AGS cells assessed as inhibition of cell viability incubated for 3 days by MTT/CTG assay; conditions: 72 h
pIC50: −log10 of the molar value.

COMPOUND | pIC50
Cc1nc(NC(=O)N2CCC[C@H]2C(N)=O)sc1-c1ccnc(C(C)(C)C(F)(F)F)c1 [ALPELISIB] | 6.28
COc1ncc(-c2cc(OCCCCCCCCCCCCNc3cccc4c3C(=O)N(C3CCC(=O)NC3=O)C4=O)c3ncnc(C)c3c2)cc1NS(=O)(=O)c1ccc(F)cc1F (configuration not stated) | 6.43

----------
molecular target: UniProt:Q12809; assay: Inhibition of hERG stably expressed in HEK293 cells at 10 uM by whole-cell patch-clamp technique relative to control; type: toxicity, cell-based; conditions: HEK293 cells stably expressing hERG
MEASURED ATTRIBUTE: inhibition at 10 µM (%)

MOLECULE | SYSTEM NAME | READOUT VALUE
COc1ncc(-c2cc(OCCCCCCCCCCCCNc3cccc4c3C(=O)N(C3CCC(=O)NC3=O)C4=O)c3ncnc(C)c3c2)cc1NS(=O)(=O)c1ccc(F)cc1F (stereo unspecified) | UniProt:Q12809 | 10.2

----------
test: Metabolic stability in human liver microsomes assessed as half life at 2 uM measured up to 60 mins by LC-MS/MS analysis; format: ADME, Microsome

MOLECULE | half-life at 2 µM
COc1ncc(-c2cc(OCCCCCCCCCCCCNc3cccc4c3C(=O)N(C3CCC(=O)NC3=O)C4=O)c3ncnc(C)c3c2)cc1NS(=O)(=O)c1ccc(F)cc1F (stereo unspecified) | 34.7 min
